molecular target: PI3-kinase p110-delta/p85-alpha (Homo sapiens, UniProt O00329); assay: Inhibition of N-terminal His6-tagged recombinant full-length human p110delta/untagged recombinant full length p85alpha expressed in baculovirus infected Sf21 cells using phosphatidylinositol as substrate in presence of gamma-32P-ATP after 5 mins by thin layer chromatographic method
Sequence (P27986 whole entry): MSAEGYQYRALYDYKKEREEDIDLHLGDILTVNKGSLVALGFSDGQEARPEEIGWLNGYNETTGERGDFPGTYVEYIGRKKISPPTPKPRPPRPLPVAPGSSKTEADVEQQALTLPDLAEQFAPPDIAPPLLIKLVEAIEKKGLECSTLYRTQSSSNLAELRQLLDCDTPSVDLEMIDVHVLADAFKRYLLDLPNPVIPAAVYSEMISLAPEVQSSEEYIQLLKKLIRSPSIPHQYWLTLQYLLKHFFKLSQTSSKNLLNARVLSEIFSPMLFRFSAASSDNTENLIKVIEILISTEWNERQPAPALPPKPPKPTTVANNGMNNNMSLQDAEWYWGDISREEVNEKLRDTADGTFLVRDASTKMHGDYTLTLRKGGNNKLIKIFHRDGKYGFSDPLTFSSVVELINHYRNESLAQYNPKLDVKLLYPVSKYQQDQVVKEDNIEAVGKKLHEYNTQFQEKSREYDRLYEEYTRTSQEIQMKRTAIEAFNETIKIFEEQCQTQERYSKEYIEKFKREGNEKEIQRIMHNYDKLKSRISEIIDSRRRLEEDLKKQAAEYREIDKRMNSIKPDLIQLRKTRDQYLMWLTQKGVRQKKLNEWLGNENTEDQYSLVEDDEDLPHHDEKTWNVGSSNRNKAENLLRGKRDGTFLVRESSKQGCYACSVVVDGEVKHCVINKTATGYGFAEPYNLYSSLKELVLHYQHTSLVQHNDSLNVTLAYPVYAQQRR
Sequence (O00329 whole entry): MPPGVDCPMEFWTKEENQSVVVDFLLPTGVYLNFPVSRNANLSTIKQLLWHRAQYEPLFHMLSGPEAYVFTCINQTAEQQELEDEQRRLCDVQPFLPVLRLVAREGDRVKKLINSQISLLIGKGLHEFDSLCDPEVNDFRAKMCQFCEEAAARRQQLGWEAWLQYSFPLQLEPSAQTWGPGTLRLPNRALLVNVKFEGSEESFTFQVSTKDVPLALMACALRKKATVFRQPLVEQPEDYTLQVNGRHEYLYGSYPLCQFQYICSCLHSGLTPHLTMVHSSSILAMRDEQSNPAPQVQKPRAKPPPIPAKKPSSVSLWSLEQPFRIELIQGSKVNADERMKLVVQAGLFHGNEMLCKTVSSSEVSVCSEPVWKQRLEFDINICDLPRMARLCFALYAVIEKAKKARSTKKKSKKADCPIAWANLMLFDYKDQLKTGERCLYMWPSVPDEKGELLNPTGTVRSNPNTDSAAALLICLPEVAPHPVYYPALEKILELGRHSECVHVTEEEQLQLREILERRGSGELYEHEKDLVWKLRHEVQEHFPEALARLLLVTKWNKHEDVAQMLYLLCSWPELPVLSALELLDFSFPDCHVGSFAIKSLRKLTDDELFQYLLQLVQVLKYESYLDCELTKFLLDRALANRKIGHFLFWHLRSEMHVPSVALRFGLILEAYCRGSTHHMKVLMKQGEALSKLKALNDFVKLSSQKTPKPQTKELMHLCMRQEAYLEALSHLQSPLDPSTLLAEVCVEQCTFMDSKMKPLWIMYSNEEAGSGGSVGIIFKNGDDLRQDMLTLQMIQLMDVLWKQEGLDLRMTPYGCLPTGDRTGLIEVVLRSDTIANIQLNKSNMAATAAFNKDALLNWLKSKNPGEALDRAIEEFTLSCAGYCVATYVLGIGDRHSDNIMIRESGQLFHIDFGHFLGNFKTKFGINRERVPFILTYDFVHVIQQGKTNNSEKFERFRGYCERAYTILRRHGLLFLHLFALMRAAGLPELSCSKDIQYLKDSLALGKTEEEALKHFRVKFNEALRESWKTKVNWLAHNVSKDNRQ
pIC50: −log10 of the molar value.
endpoint: pIC50

Examples with answers:
INSERT INTO results (given_smiles, endpoint, observed_measurement) VALUES
  ('Cc1cccc2cc(Cn3nc(-c4cc(O)cc(F)c4)c4c(N)ncnc43)n(C3CCCC3)c(=O)c12', 'pIC50', '> 7.00'),
  ('Cc1ccccc1-n1c(Cn2nc(-c3ccc(F)c(O)c3)c3c(N)ncnc32)cc2ccccc2c1=O', 'pIC50', '> 7.00'),
  ('Cc1ccccc1-n1c(Cn2nc(-c3cccc(Cl)c3)c3c(N)ncnc32)cc2cccc(C)c2c1=O', 'pIC50', '> 5.00'),
  ('Cc1cccc2cc(Cn3nc(-c4ccc5nc(N)[nH]c5c4)c4c(N)ncnc43)n(-c3ccccc3)c(=O)c12', 'pIC50', '> 7.00');

GET /values?readout=pIC50&item= Cc1ccncc1-n1c(Cn2nc(I)c3c(N)ncnc32)cc2cccc(C)c2c1=O
> 7.00

How about this compound: Cc1cccc2cc(Cn3nc(-c4ccc5sc(N)nc5c4)c4c(N)ncnc43)n(-c3ccccc3)c(=O)c12
> 7.00

How about this compound: Cc1ccccc1-n1c(Cn2nc(-c3ccc(F)cc3)c3c(N)ncnc32)cc2cccc(C)c2c1=O
> 5.00

How about this compound: Nc1ncnc2c1c(-c1cc(O)cc(F)c1)nn2Cc1cc2cccc(Cl)c2c(=O)n1C1CC1
> 7.00

How about this compound: Cc1cccc2cc(Cn3nc(C#C[C@@H](C)O)c4c(N)ncnc43)n(-c3ccccc3C(C)C)c(=O)c12
> 7.00

How about this compound: Cc1ccccc1-n1c(Cn2nc(-c3cnc4[nH]ccc4c3)c3c(N)ncnc32)cc2cccc(C)c2c1=O
> 7.00

Numbers sourced from ChEMBL document CHEMBL3879901.
